Test system: HCT-116 colon
Assay: NCI tumour cell line growth inhibition, 48 h
Here, each record is paired with measured TGI data.

- Compound: "CC(C)C(C/C=C1\\CC(CO)(COC(=O)C(C)(C)C)OC1=O)C(C)C (centres undefined)"
  TGI: "22.7 µM"
- Compound: "Cc1cccc2c1Sc1ccccc1C2NC(=O)CCN(C)C (centres undefined)"
  TGI: "> 100 µM"
- Compound: "CCCCC/C=C1\\CCC(CN(C)C)C1=O (centres undefined)"
  TGI: "25 µM"
- Compound: "Cn1cc(-c2csc(-c3c[nH]c4ccc(Br)cc34)n2)c2cnccc21"
  TGI: "3.11 µM"
- Compound: "O=[N+]([O-])c1cccc2ccc(N/N=C/c3ccccc3O)nc12"
  TGI: "> 100 µM"
- Compound: "O=C(CC(C(=O)c1ccsc1)c1ccccc1)c1ccccc1 (centres undefined)"
  TGI: "> 100 µM"
- Compound: "C[C@@]12CCC[C@@](C)(C(=O)O)C1CC[C@]13CC(=O)[C@](CO)(C1)[C@@H](O)CC32 (some centres undefined)"
  TGI: "> 100 µM"
- Compound: "CCOC(=O)/C=C(/C(=O)OCC)n1cnc2c(=O)[nH]c(NC(C)=O)nc21"
  TGI: "> 100 µM"
- Compound: "CC(=O)c1c(O)ccc2c1c1c(n2C)C(=O)c2ccccc2C1=O"
  TGI: "> 100 µM"
- Compound: "COC(=O)c1s/c(=N\\C(=S)N(C)C)n(-c2ccc(Cl)cc2)c1C(=O)OC"
  TGI: "> 100 µM"
- Compound: "C[C@H](Nc1cc(Cl)nc2c1cnn2[C@@H]1O[C@H](COP(=O)(O)CP(=O)(O)O)[C@@H](O)[C@H]1O)c1ccccc1F"
  TGI: "> 100 µM"
- Compound: "O=P1(c2ccccc2)Nc2ccccc2SSc2ccccc2N1"
  TGI: "31.4 µM"
- Compound: "C[Si](C)(C)/C(I)=C/CO"
  TGI: "27.5 µM"
- Compound: "COc1cccc2c1C(=O)c1c(O)c3c(c(O)c1C2=O)C[C@@](O)(/C(C)=N/NC(=O)c1ccc(Cl)cc1)C[C@@H]3OC1CC(N)C(O)C(C)O1 (some centres undefined)"
  TGI: "1.49 µM"
- Compound: "O=C(Nc1ccc(Cl)c(C(F)(F)F)c1)c1ccc(NC2=C(Cl)C(=O)N(Cc3ccccc3)C2=O)cc1"
  TGI: "27.2 µM"
- Compound: "CC(C)OC(=O)[C@H](C)NP(=O)(OC[C@H]1O[C@@H](n2ccc(=O)[nH]c2=O)[C@](C)(F)[C@@H]1O)Oc1ccccc1 (some centres undefined)"
  TGI: "> 100 µM"
- Compound: "C=C1CC/C=C(\\C)CCC[C@H](C)[C@@H](O)[C@@H]2OC(=O)C(=C)[C@@H]2C[C@H]1O"
  TGI: "30.5 µM"
- Compound: "CC(=O)NC1=N/C(=C\\c2ccc(Cl)cc2)C(=O)N1/C=C1\\C(=O)Oc2ccccc2C1=O"
  TGI: "> 100 µM"
- Compound: "CC12CCC3c4ccc(O)cc4CCC3C1C/C(=N\\O)C2O (centres undefined)"
  TGI: "> 100 µM"
- Compound: "CN(C)CCNC(=O)c1cccc2ccc(-c3ccc(F)cc3)nc12"
  TGI: "13.3 µM"
- Compound: "Cc1ccc(S(=O)OCc2c(C)c(C)c(COS(=O)c3ccc(C)cc3)c(C)c2C)cc1 (centres undefined)"
  TGI: "> 100 µM"
- Compound: "Cc1nc2ccc(F)cc2c2c1CCN2c1ccc(Cl)cc1"
  TGI: "36.2 µM"
- Compound: "CCOC(=O)c1c2c(n(Cc3ccccc3)c1C)C(=O)C(=O)c1ccccc1-2"
  TGI: "0.692 µM"
- Compound: "COc1ccc(C2=C3SC=c4ccccc4=C3ON=C2c2ccccc2)cc1"
  TGI: "> 100 µM"
- Compound: "Cc1ccc(Nc2oc(-c3ccccc3)nc2[P+](c2ccccc2)(c2ccccc2)c2ccccc2)cc1"
  TGI: "1.39 µM"
- Compound: "O=c1c2ncn(C3CCCO3)c2n(-c2ccccc2)c(=S)n1-c1ccccc1 (centres undefined)"
  TGI: "> 100 µM"
- Compound: "CN(CCN(C)C(=O)CCn1cc(F)c(=O)[nH]c1=O)C(=O)CCn1cc(F)c(=O)[nH]c1=O"
  TGI: "> 100 µM"
- Compound: "COc1ccc(-c2cc3ccccc3oc2=O)cc1OC"
  TGI: "> 100 µM"
- Compound: "CN1CC[C@@H](c2c(O)cc(O)c3c(=O)cc(-c4ccc(C(F)(F)F)cc4Cl)oc23)[C@@H]1CO"
  TGI: "24.2 µM"
- Compound: "COC(=O)c1nsc(OC)c1Cl"
  TGI: "> 100 µM"
- Compound: "COc1ccc(C(C#N)NNC(=O)Cc2ccccc2)cc1OC (centres undefined)"
  TGI: "> 100 µM"
- Compound: "CN1C(=O)C2CCCC(=O)N2c2cccnc21 (centres undefined)"
  TGI: "> 100 µM"
- Compound: "COc1ccc(C2=C(c3ccc(OC)cc3)C(=O)N3CCCC3C2)cc1 (centres undefined)"
  TGI: "32.8 µM"
- Compound: "O=C(Nc1cc(C(F)(F)F)ccc1Cl)c1cccc(NC2=C(Cl)C(=O)N(Cc3ccccc3)C2=O)c1"
  TGI: "> 100 µM"
- Compound: "O=C(O)CCSC(CC1(c2ccc(Cl)cc2)NC(=O)CCS1)c1ccccc1 (centres undefined)"
  TGI: "17.4 µM"
- Compound: "COC1(OC)CCCc2c1no[n+]2[O-]"
  TGI: "> 100 µM"
- Compound: "CCCOC(=O)CNC(=O)OC(C)(C)C"
  TGI: "> 100 µM"
- Compound: "CC(C(=O)O)c1cccc(Oc2ccccc2)c1 (centres undefined)"
  TGI: "> 100 µM"
- Compound: "CC1OC(OC2C(OC(=O)[C@]34CCC(C)(C)C[C@H]3C3=CC[C@@H]5[C@@]6(C)CC[C@H](OC7OC(CO)C(O)C(O)C7OC7OC(CO)C(O)C(O)C7O)C(C)(C)[C@@H]6CC[C@@]5(C)[C@]3(C)CC4)OCC(O)C2O)C(O)C(OC2OCC(O)C(O)C2O)C1OC1OCC(O)C(OC2OCC(O)C(O)C2O)C1O (some centres undefined)"
  TGI: "> 100 µM"

---

System: EKVX NSCLC
Experiment: NCI tumour cell line growth inhibition, 48 h
Where a SMILES comes first, the peptide text is derived from it. The star is where a group is joined. Cbz = O=C(OCc1ccccc1)*
Endpoint: TGI

- Compound: "CC(C)(C)[Si](C)(C)Oc1ccc(C2CNC(=O)C23CCC(=O)N3Cc2ccccc2)cc1 (stereo not drawn)"
  Endpoint: "TGI"
  Observed result: "22.4 µM"
- Compound: "O=C(O)CCSC(CC1(c2ccc(Cl)cc2)NC(=O)CCS1)c1ccccc1 (stereo not drawn)"
  Endpoint: "TGI"
  Observed result: "46.9 µM"
- Compound: "C=COC(=O)N[C@H]1CCc2cc(OC)c(OC)c(OC)c2-c2ccc(SC)c(=O)cc21"
  Endpoint: "TGI"
  Observed result: "> 100 µM"
- Compound: "COC(=O)c1ccc2c(c1)/C(=C\\c1cc(Br)c(O)c(Br)c1)C(=O)N2"
  Endpoint: "TGI"
  Observed result: "> 25 µM"
- Compound: "COc1ccc2c(c1)CCCN2CCCCCCCCCCN(CCC(C)C)CCC(C)C"
  Endpoint: "TGI"
  Observed result: "20 µM"
- Compound: "C[Si](C)(C)/C(I)=C/CO"
  Endpoint: "TGI"
  Observed result: "71.7 µM"
- Compound: "CC1(Br)Cc2ccccc2C1=O (stereo not drawn)"
  Endpoint: "TGI"
  Observed result: "11.2 µM"
- Compound: "CCc1ccc(/C=C/c2ccc(O)c3ncccc23)[n+](C)c1"
  Endpoint: "TGI"
  Observed result: "> 100 µM"
- Compound: "COc1cc(/C=C/C(=O)Oc2ccc(NC(C)=O)cc2)ccc1C(=O)O/C=C/c1ccccc1"
  Endpoint: "TGI"
  Observed result: "> 100 µM"
- Compound: "O=C(Nc1cc(C(F)(F)F)ccc1Cl)c1cccc(NC2=C(Cl)C(=O)N(Cc3ccccc3)C2=O)c1"
  Endpoint: "TGI"
  Observed result: "> 100 µM"
- Compound: "Cc1ccc2c(C3C(C#N)=C(N)Oc4cc5ccccc5cc43)cc(=O)oc2c1 (stereo not drawn)"
  Endpoint: "TGI"
  Observed result: "> 100 µM"
- Compound: "C=CN1C(=O)[C@H](Oc2ccccc2)[C@@H]1c1ccccc1"
  Endpoint: "TGI"
  Observed result: "> 100 µM"
- Compound: "C=C1CC/C=C(\\C)CCC[C@H](C)[C@@H](O)[C@@H]2OC(=O)C(=C)[C@@H]2C[C@H]1O"
  Endpoint: "TGI"
  Observed result: "> 42.6 µM"
- Compound: "O=C(CSc1c2ccccc2nc2ccccc12)Nc1ccccc1-c1ccccc1NC(=O)CSc1c2ccccc2nc2ccccc12"
  Endpoint: "TGI"
  Observed result: "> 76.6 µM"
- Compound: "COC(=O)c1nsc(OC)c1Cl"
  Endpoint: "TGI"
  Observed result: "> 100 µM"
- Compound: "Nc1ccn(C2OC(C(O)CO)C(O)C2O)c(=O)n1 (stereo not drawn)"
  Endpoint: "TGI"
  Observed result: "> 100 µM"
- Compound: "CC(C)=CCc1cc2c(cc1O)OC[C@H]1c3cc4c(cc3O[C@@H]21)OCO4"
  Endpoint: "TGI"
  Observed result: "76.9 µM"
- Compound: "CC1OC(OC2C(OC(=O)[C@]34CCC(C)(C)C[C@H]3C3=CC[C@@H]5[C@@]6(C)CC[C@H](OC7OC(CO)C(O)C(O)C7OC7OC(CO)C(O)C(O)C7O)C(C)(C)[C@@H]6CC[C@@]5(C)[C@]3(C)CC4)OCC(O)C2O)C(O)C(OC2OCC(O)C(O)C2O)C1OC1OCC(O)C(OC2OCC(O)C(O)C2O)C1O (stereo partly drawn)"
  Endpoint: "TGI"
  Observed result: "17.1 µM"
- Compound: "COC(=O)C1=C(C(=O)OC)C2=S(SC3=C2CCCC3)S1 (stereo not drawn)"
  Endpoint: "TGI"
  Observed result: "> 100 µM"
- Compound: "[N-]=[N+]=N/C1=C/CCCCC(=O)C1"
  Endpoint: "TGI"
  Observed result: "> 100 µM"
- Compound: "CC(C)=CCC/C(C)=C/CC/C(C)=C/CC(CO)N(C)CC/C=C(\\C)CCC=C(C)C (stereo not drawn)"
  Endpoint: "TGI"
  Observed result: "23.4 µM"
- Compound: "O=C(CNS(=O)(=O)Cc1ccccc1)NNc1ccccc1"
  Endpoint: "TGI"
  Observed result: "> 100 µM"
- Compound: "CCc1c(Cl)c(C)cc(O)c1Cl"
  Endpoint: "TGI"
  Observed result: "> 100 µM"
- Compound: "Cn1cc(-c2csc(-c3c[nH]c4ccc(Br)cc34)n2)c2cnccc21"
  Endpoint: "TGI"
  Observed result: "6.37 µM"
- Compound: "O=C(Nc1ccc(Cl)c(C(F)(F)F)c1)c1ccc(NC2=C(Cl)C(=O)N(Cc3ccccc3)C2=O)cc1"
  Endpoint: "TGI"
  Observed result: "34.5 µM"
- Compound: "C[C@]12CCC(=O)C=C1CC[C@@H]1C2CC[C@]2(C)Nc3[nH]ncc3CC12 (stereo partly drawn)"
  Endpoint: "TGI"
  Observed result: "> 100 µM"
- Compound: "CCCCCCCN=C(N)c1ccc(N2CCN(c3ccc(C(N)=NCCCCCCC)cc3)CC2)cc1"
  Endpoint: "TGI"
  Observed result: "2.94 µM"
- Compound: "Cn1c2c(c3ccccc31)CCN1C(=O)CN(C(=O)C3CCCCC3)CC21 (stereo not drawn)"
  Endpoint: "TGI"
  Observed result: "> 100 µM"
- Compound: "O=[N+]([O-])c1ccc(-c2cnc3ccccn23)cc1"
  Endpoint: "TGI"
  Observed result: "> 100 µM"
- Compound: "C[C@H]1CN[C@@H]2[C@@H](C)[C@H]3[C@@H](C[C@H]4[C@@H]5CC[C@H]6C[C@@H](N)CC[C@]6(C)[C@H]5CC[C@]34C)O[C@@]2(O)C1"
  Endpoint: "TGI"
  Observed result: "14.9 µM"
- Compound: "COC(=O)/C=C\\C(C#N)(C#N)N=Cc1cc(Br)cs1"
  Endpoint: "TGI"
  Observed result: "18.7 µM"
- Compound: "CC(=O)NC1=N/C(=C\\c2ccc(Cl)cc2)C(=O)N1/C=C1\\C(=O)Oc2ccccc2C1=O"
  Endpoint: "TGI"
  Observed result: "> 100 µM"
- Compound: "Cc1ncc([N+](=O)[O-])n1CCNCCCCn1ccnc1[N+](=O)[O-]"
  Endpoint: "TGI"
  Observed result: "> 100 µM"
- Compound: "CC(NC(=O)C(NC(=O)OCc1ccccc1)C(C)C)C(=O)NCC(=O)O (stereo not drawn) (Cbz-Val-Ala-Gly-OH; configuration not given here)"
  Endpoint: "TGI"
  Observed result: "> 100 µM"
- Compound: "O=C1c2ccccc2C(=O)c2c1nc1ccccc1c2-c1cncc(-c2c3c(nc4ccccc24)C(=O)c2ccccc2C3=O)c1"
  Endpoint: "TGI"
  Observed result: "> 100 µM"
- Compound: "CC(=O)NNc1nc(-c2ccc([N+](=O)[O-])cc2)c(C#N)c(=O)n1C"
  Endpoint: "TGI"
  Observed result: "> 100 µM"
- Compound: "CC(=O)N(C)CCc1c[nH]c2ccccc12"
  Endpoint: "TGI"
  Observed result: "> 100 µM"
- Compound: "CC1(C)CC(=O)CC(=Nc2ccc([N+](=O)[O-])cc2)C1"
  Endpoint: "TGI"
  Observed result: "> 100 µM"
